Reference source for all entries: PubChem BioAssay (NCI)

Test system: LXFL 529 NSCLC
Experiment: NCI tumour cell line growth inhibition, 48 h
Reported Endpoint: TGI

{"columns": ["Molecule", "Reported Endpoint", "Result"],
 "data": [
  ["C/C(CC(=O)Nc1cccc(Cl)c1C)=N\\N=C(N)N", "TGI", "> 100 µM"],
  ["CCN(CC)C(=S)S", "TGI", "> 100 µM"],
  ["Cc1cc(OC(=O)c2c(C)cc(OC(=O)c3c(C)cc(O)cc3O)cc2O)cc(O)c1C(=O)O", "TGI", "> 100 µM"],
  ["Clc1ccc(-c2nnc(-c3nsc4ccccc34)o2)cc1", "TGI", "> 100 µM"],
  ["Clc1cccc(C2SCc3nc4ccccc4n32)c1 (configuration not stated)", "TGI", "> 100 µM"],
  ["O[C@]12c3ccccc3C1CCCCC2N1CCOCC1 (some centres not stated)", "TGI", "> 100 µM"],
  ["C1CCN2CC3CONC3C2C1 (configuration not stated)", "TGI", "> 100 µM"],
  ["CC(C)=CC(=O)CC(=O)C(=O)NCCNC(=O)C(=O)CC(=O)C=C(C)C", "TGI", "> 50 µM"],
  ["Cn1c(=O)c(C(=O)NC23CC4CC(CC(C4)C2)C3)c(O)c2ccccc21", "TGI", "> 100 µM"],
  ["CC1(C)OC2OC(COC(=O)C(c3ccccc3)c3ccccc3)C3OC(C)(C)OC3C2O1 (configuration not stated)", "TGI", "> 100 µM"],
  ["CC1CCC2c3c([nH]c4ccccc34)C3C(=O)N(c4ccccc4)C(=O)C3C2C1 (configuration not stated)", "TGI", "> 250 µM"],
  ["CN(C)CCNC(=O)c1cccc2cc3ccc4ccccc4c3nc12", "TGI", "0.665 µM"]
]}
